Test system: BMSC (primary human bone marrow mesenchymal stromal cells)
Test: absolute EC50 for viability; higher = less sensitive
PROPERTY LABEL: absolute EC50 for viability

Data request: Find absolute EC50 for viability (BMSC (primary human bone marrow mesenchymal stromal cells)) for the entry Nc1nc(Nc2ccc3c(c2)CC[C@@H](N2CCCC2)CC3)nn1-c1cc2c(nn1)-c1ccccc1CCC2
Data returned: 2.49 µM

Data request: Find absolute EC50 for viability (BMSC (primary human bone marrow mesenchymal stromal cells)) for the entry C=CC(=O)Nc1cccc(Oc2nc(Nc3ccc(N4CCN(C)CC4)cc3)nc3ccsc23)c1
Data returned: > 1 µM

Data request: Find absolute EC50 for viability (BMSC (primary human bone marrow mesenchymal stromal cells)) for the entry CCN(CC)C(=S)SSC(=S)N(CC)CC
Data returned: > 50 µM

Data request: Find absolute EC50 for viability (BMSC (primary human bone marrow mesenchymal stromal cells)) for the entry Cc1sc2c(c1C)C(c1ccc(Cl)cc1)=N[C@@H](CC(=O)NCCCCNC(=O)COc1cccc3c1C(=O)N(C1CCC(=O)NC1=O)C3=O)c1nnc(C)n1-2 (stereo not given in full)
Data returned: 2.05 µM

Data request: Find absolute EC50 for viability (BMSC (primary human bone marrow mesenchymal stromal cells)) for the entry O=C(/C=C/c1cccnc1)NCCCCC1CCN(C(=O)c2ccccc2)CC1
Data returned: > 1 µM

Data request: Find absolute EC50 for viability (BMSC (primary human bone marrow mesenchymal stromal cells)) for the entry Nc1nc(N)c2nc(-c3cccc(O)c3)c(-c3cccc(O)c3)nc2n1
Data returned: > 10 µM

Data request: Find absolute EC50 for viability (BMSC (primary human bone marrow mesenchymal stromal cells)) for the entry C[C@]12CC[C@H](O)CC1=CC[C@@H]1[C@@H]2CC[C@]2(C)C(c3cccnc3)=CC[C@@H]12
Data returned: > 5 µM

Data request: Find absolute EC50 for viability (BMSC (primary human bone marrow mesenchymal stromal cells)) for the entry CN1CCc2c(c3ccccc3n2Cc2ccc(C(=O)NO)cc2)C1
Data returned: 9.93 µM

Data request: Find absolute EC50 for viability (BMSC (primary human bone marrow mesenchymal stromal cells)) for the entry CCN(CC)CCOc1ccc(C(=C(Cl)c2ccccc2)c2ccccc2)cc1
Data returned: > 10 µM

Data request: Find absolute EC50 for viability (BMSC (primary human bone marrow mesenchymal stromal cells)) for the entry CC(C)C[C@@H](C(=O)N[C@H](C(=O)OC1CCCC1)c1ccccc1)[C@H](O)C(=O)NO
Data returned: > 10 µM

Data request: Find absolute EC50 for viability (BMSC (primary human bone marrow mesenchymal stromal cells)) for the entry Cn1nnc2c(C(N)=O)ncn2c1=O [Temozolomide]
Data returned: > 100 µM

Data request: Find absolute EC50 for viability (BMSC (primary human bone marrow mesenchymal stromal cells)) for the entry O=C(NOCCO)c1ccc2cncn2c1Nc1ccc(I)cc1F
Data returned: > 2.5 µM

Data request: Find absolute EC50 for viability (BMSC (primary human bone marrow mesenchymal stromal cells)) for the entry CN(Cc1cnc2nc(N)nc(N)c2n1)c1ccc(C(=O)N[C@@H](CCC(=O)O)C(=O)O)cc1 [Methotrexate]
Data returned: > 5 µM

Data request: Find absolute EC50 for viability (BMSC (primary human bone marrow mesenchymal stromal cells)) for the entry CC[C@H](C)C(=O)O[C@H]1C[C@@H](C)C=C2C=C[C@H](C)[C@H](CC[C@@H]3C[C@@H](O)CC(=O)O3)[C@H]21
Data returned: > 10 µM

Data request: Find absolute EC50 for viability (BMSC (primary human bone marrow mesenchymal stromal cells)) for the entry N#Cc1ccc2[nH]c(O)c(-c3ccc(CN4CCOCC4)cn3)c2c1
Data returned: > 10 µM

Data request: Find absolute EC50 for viability (BMSC (primary human bone marrow mesenchymal stromal cells)) for the entry O=C(CCCCCCNC(=O)c1cnc(N(c2ccccc2)c2ccccc2)nc1)NO
Data returned: > 10 µM

Data request: Find absolute EC50 for viability (BMSC (primary human bone marrow mesenchymal stromal cells)) for the entry Cc1cnc(NC(=O)Nc2cc(Br)c(C)cc2OC[C@@H]2CNCCO2)cn1
Data returned: > 1 µM

Data request: Find absolute EC50 for viability (BMSC (primary human bone marrow mesenchymal stromal cells)) for the entry Cc1nc2cccc(N)c2c(=O)n1C1CCC(=O)NC1=O (stereo not given)
Data returned: 9.93 µM

Data request: Find absolute EC50 for viability (BMSC (primary human bone marrow mesenchymal stromal cells)) for the entry Cc1ccc(Nc2nccc(N(C)c3ccc4c(C)n(C)nc4c3)n2)cc1S(N)(=O)=O
Data returned: > 10 µM

Data request: Find absolute EC50 for viability (BMSC (primary human bone marrow mesenchymal stromal cells)) for the entry CCCCCCCCCCCCCCCCCCOP(=O)([O-])OC1CC[N+](C)(C)CC1
Data returned: > 2.5 µM

Data request: Find absolute EC50 for viability (BMSC (primary human bone marrow mesenchymal stromal cells)) for the entry CCOc1cc2ncc(C#N)c(Nc3ccc(OCc4ccccn4)c(Cl)c3)c2cc1NC(=O)/C=C/CN(C)C
Data returned: > 1 µM

Data request: Find absolute EC50 for viability (BMSC (primary human bone marrow mesenchymal stromal cells)) for the entry O=C(Nc1cc(Cl)cc2c1[nH]c1cnccc12)c1cccnc1
Data returned: > 25 µM

Data request: Find absolute EC50 for viability (BMSC (primary human bone marrow mesenchymal stromal cells)) for the entry CN(C)C(=O)c1ccc(S(=O)(=O)c2ccc(NC(=O)C(C)(O)C(F)(F)F)c(Cl)c2)cc1 (stereo not given)
Data returned: > 10 µM

Data request: Find absolute EC50 for viability (BMSC (primary human bone marrow mesenchymal stromal cells)) for the entry CC(C)c1c(C(=O)Nc2ccccc2)c(-c2ccccc2)c(-c2ccc(F)cc2)n1CC[C@@H](O)C[C@@H](O)CC(=O)O
Data returned: 8.18 µM

Data request: Find absolute EC50 for viability (BMSC (primary human bone marrow mesenchymal stromal cells)) for the entry Clc1ccccc1C(c1ccccc1)(c1ccccc1)n1cccn1
Data returned: > 1 µM
